measured target: Coagulation factor X (Homo sapiens, UniProt P00742)
Sequence (P00742 41-179 limits assumed): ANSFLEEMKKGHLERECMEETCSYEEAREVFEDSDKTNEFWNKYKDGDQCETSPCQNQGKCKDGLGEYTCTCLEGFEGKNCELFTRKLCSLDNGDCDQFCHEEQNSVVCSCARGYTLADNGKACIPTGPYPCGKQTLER
Sequence (P00742 235-488 limits assumed): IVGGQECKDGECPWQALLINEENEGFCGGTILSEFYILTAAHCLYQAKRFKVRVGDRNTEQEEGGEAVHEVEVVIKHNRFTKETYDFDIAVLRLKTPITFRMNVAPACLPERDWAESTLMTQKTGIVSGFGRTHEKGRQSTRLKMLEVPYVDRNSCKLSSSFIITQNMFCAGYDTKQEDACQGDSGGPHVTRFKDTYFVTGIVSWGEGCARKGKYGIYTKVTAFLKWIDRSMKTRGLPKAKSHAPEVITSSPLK
parameter: Ki (nM)
Give your result in nM as a bare value.

Cc1cc(C(=O)Nc2ccc(-c3ccccc3S(N)(=O)=O)cc2)n(-c2cccc(CN)c2)n1 = 2.7
N=C(N)c1cccc(-n2nc(C(F)(F)F)cc2C(=O)Nc2ccc(-c3ccccc3S(N)(=O)=O)cc2)c1 = 0.015

Query :: Recall the reported Ki of Cc1cc(C(=O)Nc2ccc(-c3ccccc3S(N)(=O)=O)cc2F)n(-c2cccc(C(=N)N)c2)n1 on Coagulation factor X (Homo sapiens, UniProt P00742) and write it down.
Result :: 0.005

Query :: Recall the reported Ki of Cc1cc(C(=O)Nc2ccc(-c3ccccc3S(N)(=O)=O)cc2F)n(-c2cccc(CN)c2)n1 on Coagulation factor X (Homo sapiens, UniProt P00742) and write it down.
Result :: 1.6

Reference source for all entries: ChEMBL document CHEMBL1134648
